# Test system: U2OS
# protocol_description: Incucyte cell viability with U2OS; note: unitless GR value; below 1 slowed growth and below 0 cell loss
# Format: toxicity, cell-based
# assay_setup: human, 18 h, 10 µM, compound concentration 10 uM, replicate number 1, timepoint 18 hours
Known Growth Rate of a selection of compounds
observation_type: Growth Rate

[
  {
    "compound": "CCOC(=O)Nc1cc(-c2ccc(C)c(NS(C)(=O)=O)c2)nn2c(C)nnc12",
    "observation_type": "Growth Rate",
    "value_measured": 0.82
  },
  {
    "compound": "O=C(O)c1ccccc1S(=O)(=O)NCCCCN1C(=O)c2cccc3cccc(c23)C1=O",
    "observation_type": "Growth Rate",
    "value_measured": 0.78
  },
  {
    "compound": "C[C@H](CCC(=O)O)[C@H]1CC[C@H]2[C@@H]3CC[C@@H]4C[C@H](O)CC[C@]4(C)[C@H]3CC[C@]12C [LITHOCHOLIC ACID]",
    "observation_type": "Growth Rate",
    "value_measured": 0.78
  },
  {
    "compound": "CC[C@@]1(O)C(=O)OCc2c1cc1n(c2=O)Cc2cc3ccccc3nc2-1 [CAMPTOTHECIN]",
    "observation_type": "Growth Rate",
    "value_measured": 0.59
  },
  {
    "compound": "Cc1cc(Cn2nnc3c(-c4ccco4)nc(N)nc32)ccc1N [VIPADENANT]",
    "observation_type": "Growth Rate",
    "value_measured": 0.79
  },
  {
    "compound": "Cc1cnc(CNCC2(F)CCN(C(=O)c3ccc(F)c(Cl)c3)CC2)nc1",
    "observation_type": "Growth Rate",
    "value_measured": 0.81
  },
  {
    "compound": "CNC(=O)[C@H]1O[C@@H](n2cnc3c(NCc4cccc(I)c4)ncnc32)[C@H](O)[C@@H]1O [IB-MECA]",
    "observation_type": "Growth Rate",
    "value_measured": 0.79
  },
  {
    "compound": "COc1cc(Br)c(S(=O)(=O)Nc2ccc(C(F)(F)F)c(O[C@@H]3CCN(C)C3)c2)cc1OC",
    "observation_type": "Growth Rate",
    "value_measured": 0.61
  }
]
